# tgt: CDC2L6/CycC (CDK19) (Homo sapiens)
# Construct: purchased Carna Biosciences Inc
# experimentalProtocol: CDK19 inhibitory activity (Kinase Tracer-236 / Eu-anti-GST fluorescence assay)
# Format: binding
# Set-up: concentration or dose not given beside the values
# testContext: test compound concentration given as '1 1.1.1\4' [sic]
Structures can show the parent of a compound that is named as a salt.
measuredProperty: Percent inhibition of CDK19 activity (%)

CON(C)C(=O)c1sc(Oc2cccnc2C)c2c1CCc1cnsc1-2 [Example 34]	98
NC(=O)c1sc(Oc2ccc(C(=O)N3CCOCC3)cc2)c2c1CCc1cnsc1-2 [Example 3]	99
CNc1ccc(Oc2sc(C(N)=O)c3c2-c2sncc2CC3)c(C)n1 [Example 27, monohydrochloride]	102
NC(=O)c1sc(Oc2ccc(NC(=O)C3(O)CC3)nc2)c2c1CCc1cnsc1-2 [Example 21]	100

----------
# tgt: CDC2L6/CycC (CDK19) (Homo sapiens)
# Construct: purchased Carna Biosciences Inc
# experimentalProtocol: CDK19 inhibitory activity (Kinase Tracer-236 / Eu-anti-GST fluorescence assay)
# Type: binding
# Set-up: concentration or dose not given beside the values
# testContext: test compound concentration given as '1 1.1.1\4' [sic]
measuredProperty: Percent inhibition of CDK19 activity (%)

COCC(=O)N(C)c1ccc(Oc2sc(C(N)=O)c3c2-c2sncc2CC3)c(C)n1 [Example 126]	102
Cc1ncccc1Oc1sc(C(=O)NOCc2ccccc2)c2c1-c1sncc1CC2 [Example 58]	101
CCOCCOc1sc(C(N)=O)c2c1-c1sncc1CC2 [Example 95]	89
Cc1ncccc1Oc1sc(C(N)=O)c2c1-c1sncc1CC2 [Example 7]	101
NC(=O)c1sc(Oc2ccc(C(=O)N3CC[C@H](O)C3)nc2)c2c1CCc1cnsc1-2 [Example 110]	98
NC(=O)c1sc(Oc2ccc(C(=O)N3CCCC3)nc2)c2c1CCc1cnsc1-2 [Example 102]	100
Cc1nc(N(C)C(=O)C2CC2)ccc1Oc1sc(C(N)=O)c2c1-c1sncc1CC2 [Example 26]	102
Cc1nn(C)c(C)c1Oc1sc(C(N)=O)c2c1-c1sncc1CC2 [Example 32]	100
CS(=O)(=O)c1ccc(Oc2sc(C(N)=O)c3c2-c2sncc2CC3)cc1 [Example 53]	99
CC(=O)Nc1ccc(Oc2sc(C(N)=O)c3c2-c2sncc2CC3)c(C)n1 [Example 128]	102
CC(=O)Nc1ccc(Oc2sc(C(N)=O)c3c2-c2sncc2CC3)cn1 [Example 94]	97
CC(=O)N(C)c1ccc(Oc2sc(C(N)=O)c3c2-c2sncc2CC3)c(C)n1 [Example 28]	99

----------
# tgt: CDK8/CycC (Homo sapiens, UniProt P49336)
# Construct: purchased Carna Biosciences
# Sequence (P49336 whole entry): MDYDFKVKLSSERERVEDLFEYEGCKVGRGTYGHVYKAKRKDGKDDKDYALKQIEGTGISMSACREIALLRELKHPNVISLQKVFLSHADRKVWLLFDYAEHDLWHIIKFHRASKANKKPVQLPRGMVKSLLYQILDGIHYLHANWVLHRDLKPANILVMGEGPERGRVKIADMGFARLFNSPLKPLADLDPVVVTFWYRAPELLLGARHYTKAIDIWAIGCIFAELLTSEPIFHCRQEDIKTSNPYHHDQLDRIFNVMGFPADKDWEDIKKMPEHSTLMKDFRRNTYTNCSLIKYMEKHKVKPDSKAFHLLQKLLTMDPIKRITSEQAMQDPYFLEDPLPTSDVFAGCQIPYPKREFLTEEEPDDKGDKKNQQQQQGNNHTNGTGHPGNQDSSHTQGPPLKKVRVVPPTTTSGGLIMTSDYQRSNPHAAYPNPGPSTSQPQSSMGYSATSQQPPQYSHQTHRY
# Sequence (P24863 whole entry partner): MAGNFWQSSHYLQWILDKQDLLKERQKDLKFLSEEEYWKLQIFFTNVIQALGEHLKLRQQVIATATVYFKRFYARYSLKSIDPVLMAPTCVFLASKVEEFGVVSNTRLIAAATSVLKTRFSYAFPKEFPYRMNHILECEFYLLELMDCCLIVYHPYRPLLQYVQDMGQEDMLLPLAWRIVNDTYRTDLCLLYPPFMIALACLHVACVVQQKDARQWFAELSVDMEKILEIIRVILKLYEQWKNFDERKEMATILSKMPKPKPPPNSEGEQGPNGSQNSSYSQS
# experimentalProtocol: CDK8 inhibitory activity (Kinase Tracer-236 / Eu-anti-GST fluorescence assay)
# Type: binding
# Set-up: concentration or dose not given beside the values
# testContext: test compound concentration given as '1 1.1.1\4' [sic]
measuredProperty: Percent inhibition of CDK8 activity (%)

CCOCCNC(=O)c1ccc(Oc2sc(C(N)=O)c3c2-c2sncc2CC3)cc1	104
COCCN(C)C(=O)c1ccc(Oc2sc(C(N)=O)c3c2-c2sncc2CC3)cn1	106
Cc1ncccc1Oc1sc(C(N)=O)c2c1-c1snnc1CC2	103
CCC(=O)Nc1ccc(Oc2sc(C(N)=O)c3c2-c2sncc2CC3)cn1	100

----------
# tgt: CDK8/CycC (Homo sapiens, UniProt P49336)
# Construct: purchased Carna Biosciences
# experimentalProtocol: CDK8 inhibitory activity (Kinase Tracer-236 / Eu-anti-GST fluorescence assay)
# Format: binding
# Set-up: concentration or dose not given beside the values
# testContext: test compound concentration given as '1 1.1.1\4' [sic]
measuredProperty: Percent inhibition of CDK8 activity (%)

CS(=O)(=O)c1ccc(Oc2sc(C(N)=O)c3c2-c2sncc2CC3)cc1	100
NC(=O)c1sc(Oc2ccc(Br)cc2)c2c1CCc1cnsc1-2	100
NC(=O)c1ccc(Oc2sc(C(N)=O)c3c2-c2sncc2CC3)cn1	97
Cc1ncccc1Oc1sc(C(=O)Nn2cccc2)c2c1-c1sncc1CC2	100
Cc1ncccc1Oc1sc(C(=O)NOCc2ccccc2)c2c1-c1sncc1CC2	100
NC(=O)c1sc(Oc2ccc(Br)nc2)c2c1CCc1cnsc1-2	98
CC(=O)N(C)c1ccc(Oc2sc(C(N)=O)c3c2-c2sncc2CC3)cn1	109

----------
# tgt: CDC2L6/CycC (CDK19) (Homo sapiens, UniProt Q9BWU1)
# Construct: purchased Carna Biosciences Inc
# Sequence (Q9BWU1 whole entry): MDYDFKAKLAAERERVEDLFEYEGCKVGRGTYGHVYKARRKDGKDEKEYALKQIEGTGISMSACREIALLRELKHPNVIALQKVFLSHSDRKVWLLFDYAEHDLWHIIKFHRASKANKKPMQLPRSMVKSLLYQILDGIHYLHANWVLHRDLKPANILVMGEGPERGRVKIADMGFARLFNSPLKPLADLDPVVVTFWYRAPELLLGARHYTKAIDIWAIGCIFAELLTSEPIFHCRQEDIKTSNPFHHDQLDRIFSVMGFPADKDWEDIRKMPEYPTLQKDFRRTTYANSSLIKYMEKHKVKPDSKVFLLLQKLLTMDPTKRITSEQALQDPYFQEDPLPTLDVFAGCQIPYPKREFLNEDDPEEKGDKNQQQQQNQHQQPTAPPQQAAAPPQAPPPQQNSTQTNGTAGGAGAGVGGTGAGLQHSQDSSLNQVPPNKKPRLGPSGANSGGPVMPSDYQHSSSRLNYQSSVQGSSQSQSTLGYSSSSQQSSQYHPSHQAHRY
# Sequence (P24863 whole entry partner): as the sequence (P24863 whole entry partner) above
# experimentalProtocol: CDK19 inhibitory activity (Kinase Tracer-236 / Eu-anti-GST fluorescence assay)
# Assay type: binding
# Parameters: concentration or dose not given beside the values
# testContext: test compound concentration given as '1 1.1.1\4' [sic]
measuredProperty: Percent inhibition of CDK19 activity (%)

NC(=O)c1sc(Oc2ccc(C(=O)N3CCCCC3)nc2)c2c1CCc1cnsc1-2	95
Cc1ncccc1Oc1sc(C(=O)Nc2ncco2)c2c1-c1sncc1CC2	94
NC(=O)c1sc(Oc2ccc(C(=O)N3CC[C@@H](O)C3)nc2)c2c1CCc1cnsc1-2	98
COC1CN(C(=O)c2ccc(Oc3sc(C(N)=O)c4c3-c3sncc3CC4)c(C)n2)C1	101
N#Cc1ccc(Oc2sc(C(N)=O)c3c2-c2sncc2CC3)cn1	99
CCCSc1sc(C(N)=O)c2c1-c1sncc1CC2	95
COCCNC(=O)c1ccc(Oc2sc(C(N)=O)c3c2-c2sncc2CC3)cn1 [Example 139]	100
Cc1n[nH]c(C)c1Oc1sc(C(N)=O)c2c1-c1sncc1CC2	101
CN(C)C(=O)c1ccc(Oc2sc(C(N)=O)c3c2-c2sncc2CC3)cn1	95
Cc1ncccc1Oc1sc(C(=O)Nn2cccc2)c2c1-c1sncc1CC2	100
CS(=O)(=O)c1cc(Oc2sc(C(N)=O)c3c2-c2sncc2CC3)ccc1C#N	84
CCOC(=O)c1ccc(Oc2sc(C(N)=O)c3c2-c2sncc2CC3)cn1	102
CNc1ccc(Oc2sc(C(N)=O)c3c2-c2sncc2CC3)cn1	98

----------
# tgt: CDK8/CycC (Homo sapiens, UniProt P49336)
# Construct: purchased Carna Biosciences
# experimentalProtocol: CDK8 inhibitory activity (Kinase Tracer-236 / Eu-anti-GST fluorescence assay)
# Format: binding
# Set-up: concentration or dose not given beside the values
# testContext: test compound concentration given as '1 1.1.1\4' [sic]
measuredProperty: Percent inhibition of CDK8 activity (%)

COCCNC(=O)c1ccc(Oc2sc(C(N)=O)c3c2-c2sncc2CC3)cn1 [Example 18]	103
NC(=O)c1sc(Oc2ccc(N)nc2)c2c1CCc1cnsc1-2	87
CCCS(=O)(=O)c1ccc(Oc2sc(C(N)=O)c3c2-c2sncc2CC3)cc1	99
CN(C(=O)C1CC1)c1ccc(Oc2sc(C(N)=O)c3c2-c2sncc2CC3)cn1	101
CCOCCOc1sc(C(N)=O)c2c1-c1sncc1CC2	97
CC1(C(=O)Nc2ccc(Oc3sc(C(N)=O)c4c3-c3sncc3CC4)cn2)COC1	102
NC(=O)c1sc(Oc2ccc(C(=O)N3CCCC3)nc2)c2c1CCc1cnsc1-2	103
NC(=O)c1sc(Oc2cncc(Br)c2)c2c1CCc1cnsc1-2	89
NC(=O)c1sc(Oc2ccc(Cl)nc2)c2c1CCc1cnsc1-2	96
COCC(=O)N(C)c1ccc(Oc2sc(C(N)=O)c3c2-c2sncc2CC3)c(C)n1	103
CC(C)S(=O)(=O)c1ccc(Oc2sc(C(N)=O)c3c2-c2sncc2CC3)cc1	99
COCCNC(=O)c1ccc(Oc2sc(C(N)=O)c3c2-c2sncc2CC3)cn1 [Example 139]	103
CCOC(=O)Nc1ccc(Oc2sc(C(N)=O)c3c2-c2sncc2CC3)c(C)n1	107

----------
# tgt: CDC2L6/CycC (CDK19) (Homo sapiens, UniProt Q9BWU1)
# Construct: purchased Carna Biosciences Inc
# experimentalProtocol: CDK19 inhibitory activity (Kinase Tracer-236 / Eu-anti-GST fluorescence assay)
# Type: binding
# Design: concentration or dose not given beside the values
# testContext: test compound concentration given as '1 1.1.1\4' [sic]
measuredProperty: Percent inhibition of CDK19 activity (%)

CC(C)(O)C(=O)Nc1ccc(Oc2sc(C(N)=O)c3c2-c2sncc2CC3)cn1	104
COCCNC(=O)c1ccc(Oc2sc(C(N)=O)c3c2-c2sncc2CC3)c(C)n1	100
CC(C)(O)CNC(=O)c1ccc(Oc2sc(C(N)=O)c3c2-c2sncc2CC3)cn1	100
Cc1nc(NC(=O)C2CC2)ccc1Oc1sc(C(N)=O)c2c1-c1sncc1CC2	102
CCOCCNC(=O)c1ccc(Oc2sc(C(N)=O)c3c2-c2sncc2CC3)cn1	99
Cn1cc(Oc2sc(C(N)=O)c3c2-c2sncc2CC3)cn1	100
Cc1ncccc1Oc1sc(C(=O)NO)c2c1-c1sncc1CC2	100
Cc1nc(C(=O)NCC(C)(C)O)ccc1Oc1sc(C(N)=O)c2c1-c1sncc1CC2	99
NC(=O)c1sc(Oc2ccc(C(=O)N3CCOCC3)nc2)c2c1CCc1cnsc1-2	93
N=C(N)c1ccc(Oc2sc(C(N)=O)c3c2-c2sncc2CC3)cn1	97
